Data origin, for the record: PubChem BioAssay (NCI)

tested on: HS 578T breast; experiment: NCI tumour cell line growth inhibition, 48 h
Where a SMILES comes first, the peptide text is derived from it. [ ]: non-standard residue; d: D form. The star is where a group is joined. ξ: configuration not given here. Propanoyl(3-(4-MeO-Ph)) = COc1ccc(CCC(=O)*)cc1; Thr(3ξ) = CC(O)[C@H](N)C(=O)O; dNMeL = CN[C@H](CC(C)C)C(=O)O; OBn = c1ccc(CO*)cc1; ξLac = CC(O)C(=O)O
metric: TGI (µM)

COc1ccc(CCC(=O)OC(C)[C@H](NC(=O)[C@@H](CC(C)C)N(C)C(=O)[C@@H]2CCCN2C(=O)C(C)O)C(=O)OCc2ccccc2)cc1 (stereo not given in full) (H-[ξLac]P[dNMeL][Thr(3ξ)](Propanoyl(3-(4-MeO-Ph)))-OBn) ... 27.8
N=C1C(c2nc3ccccc3s2)=C(O)CN1c1ccc(Cl)cc1Cl ... 75.9
O=C1C=C(N2CC2)C(=O)C=C1N1CC1 ... 8.14
